Data provenance is PubChem BioAssay (NCI).

Measured growth of individual entries
Tested on: SF-268 CNS
assay name: NCI-60 one-dose screen, 48 h (100 = growth as untreated, 0 = no growth, -100 = all killed)
condition summary: 10 µM unless noted
This is part of a sample that, as a whole, favours compounds with a hit. Of some 83,000 tested, about 20% had one in any assay.
Give just the numeric value; % need not be written.

INSERT INTO results (molecule, data_value) VALUES
  ('COc1ccc(-c2ccc(=O)oc2-c2cc(OC)c(OC)c(OC)c2)cc1O', 5.78);

Task item: I would be grateful if you could share the reported growth for CCCC/C(CC)=N\NS(=O)(=O)c1ccc([N+](=O)[O-])cc1 .
Reply: 100

Task item: I would be grateful if you could share the reported growth for Cc1cc(C(=O)Nc2ncc(Cc3cccc(C(F)(F)F)c3)s2)c2ccccc2n1 .
Reply: 37.2

Task item: I would be grateful if you could share the reported growth for CN(C)S(=O)(=O)c1cccc(C(=O)Nc2nc(-c3ccc(F)c(F)c3)cs2)c1 .
Reply: 88.9

Task item: I would be grateful if you could share the reported growth for CC1CCN(S(=O)(=O)c2ccc(S(=O)(=O)N3CCCC(c4nc5c(nnn5Cc5cccc(Cl)c5)c(=O)[nH]4)C3)cc2)CC1 (centres undefined) .
Reply: 51.9

Task item: I would be grateful if you could share the reported growth for CCOC(=O)c1csc(NC(=O)COc2ccc(/C=C3\Oc4ccccc4C3=O)cc2)n1 .
Reply: 88.3

Task item: I would be grateful if you could share the reported growth for CN(C)CCNC(=O)c1cc2c3cc(Cl)ccc3[nH]c2c2ncccc12 .
Reply: 13.5

Task item: I would be grateful if you could share the reported growth for CC/C(=C(/c1ccc(Cl)cc1)c1ccc(OCCN2CCCCC2)cc1)c1ccc(OC)cc1 .
Reply: 86.5

Task item: I would be grateful if you could share the reported growth for CC(=O)N1N=C(c2ccc(C(F)(F)F)c(F)c2)CC1c1[nH]c(C)c(C(=O)NCC(F)(F)F)c1C (centres undefined) .
Reply: 60.7

----------
Tested on: UACC-62 melanoma
assay name: NCI-60 one-dose screen, 48 h
condition summary: 10 µM unless noted
About 83,000 compounds went through this panel and 20% of them were active in at least one assay; those are over-represented in the sample as a whole. Calls of active or inactive are those of the source. Rule for the calls: active = growth percent below 10; inactive = the rest.
Parameter call: string, one of active, inactive

INSERT INTO measurements (compound, label_value) VALUES
  ('COc1ccc(C2=C(Nc3ccc(C(=O)Nc4ccccc4)cc3)C(=O)N(C)C2=O)cc1', 'inactive');

Task item: Recorded test call requested for Cc1cc(=O)n(C(=O)Nc2ccccc2Cl)c2cc(O)ccc12
Reply: inactive

----------
Test system: SN12C renal
assay name: NCI-60 one-dose screen, 48 h
condition summary: 10 µM unless noted
Procedure: Growth inhibition of the SN12C human tumor cell line is measured as a screen for anti-cancer activity. Cells are grown in 96 well plates and exposed to the test compound for 48 hours. Compounds are tested at a single concentration, which is 10^-5 M for most compounds. The reported endpoint is percent growth (GI% or GIPRCNT), where numbers from 0 - 100% represent growth inhibition, and numbers from -100% - 0 represent cell death. For example, a value of 40 represents 60% growth inhibition. […]
The panel holds about 83,000 compounds, 20% with a hit somewhere; the sample as a whole holds those more often. The source made the active and inactive calls. The calls were made as follows: active = growth percent below 10; inactive = the rest.
Parameter call: string, one of TRUE for active, FALSE for inactive

Task item: Recorded test call requested for C=CCn1c(C)nc2ccc(Nc3nc(Nc4ccc5nc(C)n(CC=C)c5c4)c4ccccc4n3)cc21
Reply: TRUE

Task item: Recorded test call requested for C=CCc1c(O)c(C(=O)/C=C/c2ccccc2)c(OC)c2ccoc12
Reply: FALSE

Task item: Recorded test call requested for Clc1ccc2c(c1)C(c1c[nH]c3ccccc13)(c1c[nH]c3ccccc13)CCO2
Reply: FALSE

Task item: Recorded test call requested for Oc1c(I)cc(I)cc1CNCCN(Cc1ccccn1)Cc1ccccn1
Reply: FALSE

Task item: Recorded test call requested for NC(=O)c1c(NC(=O)c2ccc3ccccc3c2)sc2c1CCC(=O)C2
Reply: FALSE

Task item: Recorded test call requested for c1ccc([P+](c2ccccc2)(c2ccccc2)c2ccc3c4ccc([P+](c5ccccc5)(c5ccccc5)c5ccccc5)c5cccc(c6cccc2c63)c54)cc1
Reply: FALSE

Task item: Recorded test call requested for O=c1c2cccc3c(N4CCCC4)ccc(c32)c2nc3ccccc3n12
Reply: FALSE

Task item: Recorded test call requested for O=C(N(c1ccccc1)c1ccccc1)n1cc(I)c2nc(Cl)nc(Cl)c21
Reply: FALSE

Task item: Recorded test call requested for OCCn1cc(-c2nc(-c3c[nH]c4ncccc34)cs2)c2cc(F)ccc21
Reply: FALSE

----------
System: OVCAR-5 ovarian
assay name: NCI-60 one-dose screen, 48 h
condition summary: 10 µM unless noted
About 83,000 compounds went through this panel and 20% of them were active in at least one assay; those are over-represented in the sample as a whole. Calls of active or inactive are those of the source. The calls were made as follows: active = growth percent below 10; inactive = the rest.
Parameter call: string, one of y = active, n = inactive

INSERT INTO results (molecule, label_value) VALUES
  ('O=C1/C(=C\c2ccc3nccnc3c2)SC(=S)N1CCc1ccc(O)cc1', 'n'),
  ('COc1cc(C2c3cc(OC(C)=O)c(OC)cc3CC3C(=O)OCC32)ccc1OC(C)=O (stereo not given)', 'n'),
  ('N#CC1=C(N)Oc2c(c(=O)[nH]c3ccc(Cl)cc23)C12C(=O)c1ccccc1C2=O', 'n'),
  ('CCCCCN1C(=O)/C(=c2\sc3n(c2=O)C2C(NN=3)N(CC)C(=O)N2CC)c2ccccc21 (stereo not given)', 'y'),
  ('CCCCCCC12CCC(=O)N1CCc1cncn12 (stereo not given)', 'n');

Task item: Recorded test call requested for COc1cc2c(cc1OCCCN1CCN(CCCOc3cc4c(cc3OC)C(=O)N3CC(F)(F)C[C@H]3C=N4)CC1)N=C[C@@H]1CC(F)(F)CN1C2=O
Reply: n

Task item: Recorded test call requested for CCOC(=O)c1c2c(n3cccc(F)c13)C(=O)c1ncccc1C2=O
Reply: n

Task item: Recorded test call requested for O=C(Nc1cccc2ccccc12)NC1CC1
Reply: n

Task item: Recorded test call requested for COc1ccc(Nc2nc(-c3cc(O)c(C)c(C)c3O)cs2)cc1
Reply: n

Task item: Recorded test call requested for CC(=O)N1N=C(c2ccc(C(F)(F)F)c(F)c2)CC1c1[nH]c(C)c(C(=O)NCC(F)(F)F)c1C (stereo not given)
Reply: n

Task item: Recorded test call requested for O=C1C(Cl)=C(Nc2ccc(S(=O)(=O)N3CCOCC3)cc2)C(=O)c2ccccc21
Reply: n

Task item: Recorded test call requested for CC(C)Cn1cnc2c(=O)[nH]c(N)nc21
Reply: n

Task item: Recorded test call requested for O=[N+]([O-])c1cccc(-c2nc3cc4nc5ccccc5[nH]c4cc3n2)c1
Reply: n

Task item: Recorded test call requested for S=c1sc2c(Cl)nc(-c3cccnc3)nc2n1-c1ccccc1
Reply: n

Task item: Recorded test call requested for COc1ccc(-c2cc(-c3cc(OC)c(OC)c(OC)c3)c(C#N)c(=O)n2CCCCC(=O)NO)cc1
Reply: n

Task item: Recorded test call requested for CCOCCNC1=C(Cl)C(=O)c2ccccc2C1=O
Reply: n

----------
System: UACC-257 melanoma
assay name: NCI-60 one-dose screen, 48 h (100 = growth as untreated, 0 = no growth, -100 = all killed)
condition summary: 10 µM unless noted
This is part of a sample that, as a whole, favours compounds with a hit. Of some 83,000 tested, about 20% had one in any assay.
The label t is reserved for growth strictly under 60%; f covers values equal to or above it.

A selection of reference data follows.
INSERT INTO results (molecule, subject_of_test, label_value) VALUES
  ('C=C1CC[C@@H]2[C@](C)(COC(C)=O)[C@H](OC(C)=O)CC[C@@]2(C)[C@@H]1CC(Nc1ccc(S(=O)(=O)Nc2ncccn2)cc1)C1=CCOC1=O (some centres undefined)', 'UACC-257 melanoma', 't'),
  ('CCCCNC(=O)Oc1ccc(/C(=C(/C)Cc2ccc(OC)cc2)c2ccc(OCCN3CCCC3)cc2)cc1', 'UACC-257 melanoma', 't'),
  ('CCOC(=O)C#Cc1c(C(=O)OCC)nnn1Cc1ccc([N+](=O)[O-])cc1', 'UACC-257 melanoma', 't');

As a next step, examine the molecule that follows.
Task item: Below 60% on growth? Entry Cc1ccc(C[P+](c2ccccc2)(c2ccccc2)c2ccccc2)cc1
Reply: t

----------
Test system: NCI-H226 lung
assay name: NCI-60 one-dose screen, 48 h
condition summary: 10 µM unless noted
This is part of a sample that, as a whole, favours compounds with a hit. Of some 83,000 tested, about 20% had one in any assay. Active and inactive are the calls of the source. How the source made its calls: active means growth percent below 10; inactive means the rest.
Parameter call: string, one of active, inactive

INSERT INTO results (molecule, label_value) VALUES
  ('CCCCNC(=O)Oc1ccc(/C(=C(/C)Cc2ccc(OC)cc2)c2ccc(OCCN(CC)CC)cc2)cc1', 'inactive'),
  ('CC1(C)COB(OCC(C)(C)COB2OCC(C)(C)CO2)OC1', 'inactive');

Task item: Recorded test call requested for COc1ccc(/C=C(\C#N)n2nnc3cc(Cl)ccc32)cc1
Reply: inactive

Task item: Recorded test call requested for COc1cc(/C=C2/C=C(c3ccccc3)N(CCc3ccc(S(N)(=O)=O)cc3)C2=O)cc(OC)c1OC
Reply: inactive
